Tested on: Bel-7402
experiment_summary: Cytotoxicity against human Bel7402 cells after 4 days by MTT assay
Type: functional, cell-based
condition_details: Bel-7402, 96 h
assay_metric: IC50

[[record]]
compound = "COc1cc(C(=O)O[C@@H]2C[C@](C)(O)[C@H]3[C@H](O[C@@H]4O[C@H](CO)[C@@H](O)[C@H](O)[C@H]4O)OC=C[C@H]32)cc(OC)c1O[C@@H]1O[C@@H](C)[C@H](O)[C@@H](O)[C@H]1O [REHMAGLUTOSIDE C]"
measured_result = "> 10 µM"

[[record]]
compound = "CC(/C=C/[C@@]1(O)C(C)(C)C[C@H](O)C[C@@]1(C)O)=C\\C(=O)O[C@@H]1C[C@](C)(O)[C@H]2[C@H](O[C@@H]3O[C@H](CO)[C@@H](O)[C@H](O)[C@H]3O)OC=C[C@H]21 [REHMAGLUTOSIDE G]"
measured_result = "> 10 µM"

[[record]]
compound = "C[C@]1(O)C[C@@H](O)[C@@H]2C=CO[C@@H](O[C@@H]3O[C@H](CO[C@H]4C[C@H]5[C@@H]([C@@H](O[C@@H]6O[C@H](CO)[C@@H](O)[C@H](O)[C@H]6O)O4)[C@](C)(O)C[C@@H]5O)[C@@H](O)[C@H](O)[C@H]3O)[C@@H]21 [REHMAGLUTOSIDE J]"
measured_result = "> 10 µM"

